pKd: −log10 of the molar value.
pKd data for Testis-specific serine/threonine-protein kinase 1 (Homo sapiens, UniProt Q9BXA7) follow.

molecule: Oc1ccc(-c2nc(-c3ccncc3)c(-c3ccc(F)cc3)[nH]2)cc1 [SB-202190]
pKd: < 5.00

Switching to the query record.
Exercise: State its pKd on Testis-specific serine/threonine-protein kinase 1 (Homo sapiens, UniProt Q9BXA7): CCOc1cc2ncc(C#N)c(Nc3ccc(F)c(Cl)c3)c2cc1NC(=O)/C=C/CN(C)C [PELITINIB]
Solution: < 5.00

---

pKd: −log10 of the molar value.
Values of pKd reported for SRSF protein kinase 2 (Homo sapiens) appear below.

Known results for compounds:
compound: COCC(=O)NC/C=C/c1ccc2ncnc(Nc3ccc(Oc4ccc(C)nc4)c(C)c3)c2c1 [CP-724714]
pKd: < 5.00
--
compound: NC(=O)c1ccc(-c2nc(-c3ccc4c(c3)OCO4)c(-c3ccccn3)[nH]2)cc1 [SB-431542]
pKd: < 5.00
--
compound: CCOc1cc2ncc(C#N)c(Nc3ccc(F)c(Cl)c3)c2cc1NC(=O)/C=C/CN(C)C [PELITINIB]
pKd: < 5.00
--
compound: Oc1ccc(-c2nc(-c3ccncc3)c(-c3ccc(F)cc3)[nH]2)cc1 [SB-202190]
pKd: < 5.00

Exercise: # value lookup — system SRSF protein kinase 2 (Homo sapiens), readout pKd, item Nc1nc(Nc2ccc(S(N)(=O)=O)cc2)nn1C(=O)c1c(F)cccc1F [JNJ-7706621]
Solution: < 5.00

---

Kd reference
biological target: Interferon-induced, double-stranded RNA-activated protein kinase (Homo sapiens)

Exercise: Please provide the recorded Kd for `Oc1ccc(-c2nc(-c3ccncc3)c(-c3ccc(F)cc3)[nH]2)cc1` , tested on Interferon-induced, double-stranded RNA-activated protein kinase (Homo sapiens).
Solution: > 10 µM

Exercise: # query: Kd | item `NC(=O)c1ccc(-c2nc(-c3ccc4c(c3)OCO4)c(-c3ccccn3)[nH]2)cc1` | system: Interferon-induced, double-stranded RNA-activated protein kinase (Homo sapiens)
Solution: > 10 µM

Exercise: # value lookup — system Interferon-induced, double-stranded RNA-activated protein kinase (Homo sapiens), readout Kd, item `CCOc1cc2ncc(C#N)c(Nc3ccc(F)c(Cl)c3)c2cc1NC(=O)/C=C/CN(C)C`
Solution: 1.9 µM

Exercise: # returns recorded Kd (system: Interferon-induced, double-stranded RNA-activated protein kinase (Homo sapiens)) for `COCC(=O)NC/C=C/c1ccc2ncnc(Nc3ccc(Oc4ccc(C)nc4)c(C)c3)c2c1`
Solution: > 10 µM

---

As a worked illustration, we turn to Kd data collected for Ribosomal protein S6 kinase alpha-4 (Homo sapiens, UniProt O75676).

The cases that follow already have their Kd on record.
molSmiles: NC(=O)c1ccc(-c2nc(-c3ccc4c(c3)OCO4)c(-c3ccccn3)[nH]2)cc1
testSystem: Ribosomal protein S6 kinase alpha-4 (Homo sapiens, UniProt O75676)
Kd: > 10 µM
//
molSmiles: CCOc1cc2ncc(C#N)c(Nc3ccc(F)c(Cl)c3)c2cc1NC(=O)/C=C/CN(C)C
testSystem: Ribosomal protein S6 kinase alpha-4 (Homo sapiens, UniProt O75676)
Kd: > 10 µM
//
molSmiles: Oc1ccc(-c2nc(-c3ccncc3)c(-c3ccc(F)cc3)[nH]2)cc1
testSystem: Ribosomal protein S6 kinase alpha-4 (Homo sapiens, UniProt O75676)
Kd: > 10 µM
//
molSmiles: Nc1nc(Nc2ccc(S(N)(=O)=O)cc2)nn1C(=O)c1c(F)cccc1F
testSystem: Ribosomal protein S6 kinase alpha-4 (Homo sapiens, UniProt O75676)
Kd: 3 µM

Turning to the following molecule.
Exercise: Name the reported Kd value associated with the molecule `COCC(=O)NC/C=C/c1ccc2ncnc(Nc3ccc(Oc4ccc(C)nc4)c(C)c3)c2c1`
Solution: > 10 µM

---

pKd: −log10 of the molar value.
The reader will find pKd measurements below, all made with UniProt:Q00535.

Some entries whose results are on file:
molSmiles: Oc1ccc(-c2nc(-c3ccncc3)c(-c3ccc(F)cc3)[nH]2)cc1
testSystem: UniProt:Q00535
pKd: < 5.00

molSmiles: COCC(=O)NC/C=C/c1ccc2ncnc(Nc3ccc(Oc4ccc(C)nc4)c(C)c3)c2c1
testSystem: UniProt:Q00535
pKd: < 5.00

molSmiles: NC(=O)c1ccc(-c2nc(-c3ccc4c(c3)OCO4)c(-c3ccccn3)[nH]2)cc1
testSystem: UniProt:Q00535
pKd: < 5.00

molSmiles: CCN1CCN(Cc2ccc(NC(=O)Nc3ccc(Oc4cc(NC)ncn4)cc3)cc2C(F)(F)F)CC1
testSystem: UniProt:Q00535
pKd: 6.00

Okay, now this compound:
Exercise: What reported pKd corresponds to `CCOc1cc2ncc(C#N)c(Nc3ccc(F)c(Cl)c3)c2cc1NC(=O)/C=C/CN(C)C` on UniProt:Q00535?
Solution: < 5.00

---

biological target: Myotonin-protein kinase (Homo sapiens, UniProt Q09013)
pKd: −log10 of the molar value.
measurementName: pKd

Answered cases to consult:
compound: CCOc1cc2ncc(C#N)c(Nc3ccc(F)c(Cl)c3)c2cc1NC(=O)/C=C/CN(C)C [PELITINIB]
obsValue: 7.23
//
compound: NC(=O)c1ccc(-c2nc(-c3ccc4c(c3)OCO4)c(-c3ccccn3)[nH]2)cc1 [SB-431542]
obsValue: < 5.00
//
compound: Oc1ccc(-c2nc(-c3ccncc3)c(-c3ccc(F)cc3)[nH]2)cc1 [SB-202190]
obsValue: < 5.00

--- query ---
Exercise: // returns reported pKd for input COCC(=O)NC/C=C/c1ccc2ncnc(Nc3ccc(Oc4ccc(C)nc4)c(C)c3)c2c1 [CP-724714]
Solution: < 5.00

---

Biological target: Serine/threonine-protein kinase BRSK1 (Homo sapiens)
Sequence (Q8TDC3 whole entry): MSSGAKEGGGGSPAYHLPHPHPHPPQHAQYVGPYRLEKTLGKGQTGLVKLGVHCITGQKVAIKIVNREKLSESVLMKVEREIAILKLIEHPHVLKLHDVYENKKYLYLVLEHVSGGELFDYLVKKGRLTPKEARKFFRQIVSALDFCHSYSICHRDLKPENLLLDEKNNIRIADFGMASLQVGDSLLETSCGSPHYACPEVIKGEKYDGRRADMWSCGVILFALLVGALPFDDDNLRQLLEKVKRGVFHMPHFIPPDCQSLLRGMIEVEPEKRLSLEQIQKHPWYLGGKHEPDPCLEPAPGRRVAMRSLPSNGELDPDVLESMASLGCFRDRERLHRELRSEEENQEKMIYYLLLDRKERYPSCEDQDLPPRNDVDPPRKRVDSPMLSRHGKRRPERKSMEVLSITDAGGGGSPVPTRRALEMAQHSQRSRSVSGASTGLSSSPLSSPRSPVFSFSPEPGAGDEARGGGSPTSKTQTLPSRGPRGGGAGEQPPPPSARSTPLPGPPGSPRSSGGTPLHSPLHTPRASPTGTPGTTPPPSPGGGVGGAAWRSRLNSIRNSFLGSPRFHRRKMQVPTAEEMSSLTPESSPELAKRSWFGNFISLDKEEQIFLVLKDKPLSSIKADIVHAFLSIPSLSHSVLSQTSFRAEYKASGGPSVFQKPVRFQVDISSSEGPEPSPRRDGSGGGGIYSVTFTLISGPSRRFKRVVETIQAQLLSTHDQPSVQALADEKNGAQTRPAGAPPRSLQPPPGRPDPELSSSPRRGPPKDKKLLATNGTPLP
pKd: −log10 of the molar value.
Attribute: pKd

molSmiles: CCOc1cc2ncc(C#N)c(Nc3ccc(F)c(Cl)c3)c2cc1NC(=O)/C=C/CN(C)C
pKd: < 5.00

molSmiles: COCC(=O)NC/C=C/c1ccc2ncnc(Nc3ccc(Oc4ccc(C)nc4)c(C)c3)c2c1
pKd: < 5.00

molSmiles: Oc1ccc(-c2nc(-c3ccncc3)c(-c3ccc(F)cc3)[nH]2)cc1
pKd: < 5.00

For the next question, use this molecule.
Exercise: Recorded pKd for `NC(=O)c1ccc(-c2nc(-c3ccc4c(c3)OCO4)c(-c3ccccn3)[nH]2)cc1` with Serine/threonine-protein kinase BRSK1 (Homo sapiens), please?
Solution: < 5.00

---

Quick note: these are pKd numbers for system: Atypical kinase COQ8A, mitochondrial (Homo sapiens, UniProt Q8NI60)
pKd: −log10 of the molar value.

Consider the reported pKd for these molecules:
molSmiles: Oc1ccc(-c2nc(-c3ccncc3)c(-c3ccc(F)cc3)[nH]2)cc1
obsValue: < 5.00
//
molSmiles: CCOc1cc2ncc(C#N)c(Nc3ccc(F)c(Cl)c3)c2cc1NC(=O)/C=C/CN(C)C
obsValue: < 5.00

Exercise: Bench note: what pKd did `NC(=O)c1ccc(-c2nc(-c3ccc4c(c3)OCO4)c(-c3ccccn3)[nH]2)cc1` show?
Solution: < 5.00

Exercise: For the molecule `COCC(=O)NC/C=C/c1ccc2ncnc(Nc3ccc(Oc4ccc(C)nc4)c(C)c3)c2c1` , what pKd is on record?
Solution: < 5.00

---

Heads up, these molecules all have pKd values measured for Serine/threonine-protein kinase 25 (Homo sapiens, UniProt O00506).
pKd: −log10 of the molar value.

Recorded pKd, per entry:
molSmiles: NC(=O)c1ccc(-c2nc(-c3ccc4c(c3)OCO4)c(-c3ccccn3)[nH]2)cc1
pKd: < 5.00
//
molSmiles: COCC(=O)NC/C=C/c1ccc2ncnc(Nc3ccc(Oc4ccc(C)nc4)c(C)c3)c2c1
pKd: < 5.00
//
molSmiles: Oc1ccc(-c2nc(-c3ccncc3)c(-c3ccc(F)cc3)[nH]2)cc1
pKd: < 5.00

Exercise: Give its pKd value. Item: `Nc1nc(Nc2ccc(S(N)(=O)=O)cc2)nn1C(=O)c1c(F)cccc1F`
Solution: 6.44

Data origin: ChEMBL document CHEMBL1150977
